Please go through the items and note down their microsomal CLint at 1 uM.
assayNotes: Metabolic stability in human hepatic microsome
Assay type: in vitro ADME
testContext: microsomes, pH 7.4; human hepatic microsome, NADPH(+); read-out: CL NADPH(+)
Positions of bridges follow the written chain, without caps; N, C: chain ends. Non-standard residues stand in square brackets, D forms with d. Residues, ends and D or L forms follow the SMILES beside them. *: point of attachment. Met(O2) = CS(=O)(=O)CC[C@H](N)C(=O)O; NMeF = CN[C@@H](Cc1ccccc1)C(=O)O; NMeI = CC[C@H](C)[C@H](NC)C(=O)O; NMeL = CN[C@@H](CC(C)C)C(=O)O; NMeV = CN[C@H](C(=O)O)C(C)C; NMeA = CN[C@@H](C)C(=O)O; Piperidide = C1CCN(*)CC1; dNMeA = CN[C@H](C)C(=O)O; β3hA = C[C@H](N)CC(=O)O; Sar = CNCC(=O)O; tBu = CC(C)(C)*
The reply should be a number in µL/min/mg, with the unit left off.

Exercise: Could you tell me which microsomal CLint at 1 uM is on file for CC(C)C[C@@H]1NC(=O)C[C@@H](C(=O)N2CCCCC2)NC(=O)[C@H](COC(C)(C)C)NC(=O)[C@H](CC(C)C)N(C)C(=O)CN(C)C(=O)[C@H]([C@@H](C)O)NC(=O)[C@H](CC(C)C)N(C)C(=O)[C@H](Cc2ccccc2)N(C)C1=O [DP-692] (L[NMeF][NMeL]T[Sar][NMeL]S(tBu)D-Piperidide; lactam N-8) ?
Key: 212

Exercise: Consider next the molecule CC[C@H](C)[C@H]1C(=O)N[C@H](C(=O)N2CCCCC2)CC(=O)N[C@H](C(C)C)C(=O)N(C)[C@@H](Cc2ccccc2)C(=O)N(C)[C@@H](CC(C)C)C(=O)N[C@@H]([C@@H](C)O)C(=O)N(C)CC(=O)N(C)[C@@H](CC(C)C)C(=O)N[C@@H](COC(C)(C)C)C(=O)N1C [DP-265] ([dV][NMeF][NMeL]T[Sar][NMeL]S(tBu)[NMeI]D-Piperidide; lactam N-9) in the same way.
Key: 58

Exercise: Consider next the molecule CNC(=O)CC[C@@H]1NC(=O)[C@H](CC(C)C)N(C)C(=O)[C@H](C)N(C)C(=O)[C@@H](C(C)C)NC(=O)C[C@@H](C(=O)N2CCCCC2)NC(=O)[C@H]([C@@H](C)O)NC(=O)[C@H](C)N(C)C(=O)CN(C)C(=O)[C@H](CC(C)C)N(C)C(=O)[C@H](Cc2ccccc2)NC(=O)[C@H](Cc2ccccc2)N(C)C1=O [DP-627] ([dV][NMeA][NMeL]E(NHMe)[NMeF]F[NMeL][Sar][NMeA]TD-Piperidide; lactam N-11) in the same way.
Key: 9

Exercise: Consider next the molecule CC(C)C[C@H]1C(=O)N(C)[C@@H](CC(C)C)C(=O)N(C)[C@@H](Cc2ccccc2)C(=O)N(C)[C@@H](CC(C)C)C(=O)N[C@H](C(=O)N(C)[C@@H](Cc2ccccc2)C(=O)N[C@@H](C)C(=O)N2CCCCC2)CC(=O)N(C)CC(=O)N[C@@H]([C@@H](C)O)C(=O)N(C)[C@@H](Cc2ccccc2)C(=O)N(C)[C@@H](CC(C)C)C(=O)N[C@@H](C)C(=O)N1C [DP-493] ([Sar]T[NMeF][NMeL]A[NMeL][NMeL][NMeF][NMeL]D[NMeF]A-Piperidide; lactam N-10) in the same way.
Key: 52

Exercise: Consider next the molecule CC[C@H](C)[C@H]1C(=O)N(C)[C@@H](CC(C)C)C(=O)N[C@@H](Cc2ccccc2)C(=O)N[C@@H]([C@@H](C)O)C(=O)N[C@@H](CC(C)C)C(=O)N(C)[C@@H](Cc2ccccc2)C(=O)N(C)[C@@H](C(C)C)C(=O)N[C@H](C(=O)N2CCCCC2)CC(=O)N[C@H](C)C(=O)N[C@@H](C)C(=O)N1C [DP-252] ([dA]A[NMeI][NMeL]FTL[NMeF][NMeV]D-Piperidide; lactam N-10) in the same way.
Key: 119

Exercise: Consider next the molecule CC[C@H](C)[C@H]1C(=O)N(C)[C@@H](CC(C)C)C(=O)N[C@H](C(=O)N2CCCCC2)CC(=O)N(C)CC(=O)N[C@@H](CC(C)C)C(=O)N[C@@H]([C@@H](C)O)C(=O)N(C)CC(=O)N(C)[C@@H](Cc2ccccc2)C(=O)N[C@@H](C)C(=O)N(C)[C@@H](Cc2ccccc2)C(=O)N(C)[C@@H](CC(C)C)C(=O)N1C [DP-246] ([Sar]LT[Sar][NMeF]A[NMeF][NMeL][NMeI][NMeL]D-Piperidide; lactam N-11) in the same way.
Key: 42

Exercise: Consider next the molecule CC(C)C[C@@H]1NC(=O)[C@H](CC(C)C)N(C)C(=O)[C@H](C)N(C)C(=O)[C@@H](C(C)C)NC(=O)C[C@@H](C(=O)N2CCCCC2)NC(=O)[C@H](CCS(C)(=O)=O)NC(=O)[C@H](CC(C)C)N(C)C(=O)[C@H](C)N(C)C(=O)[C@H](CC(C)C)N(C)C(=O)[C@H](Cc2ccccc2)NC(=O)[C@H](Cc2ccccc2)N(C)C1=O [DP-620] ([dV][NMeA][NMeL]L[NMeF]F[NMeL][NMeA][NMeL][Met(O2)]D-Piperidide; lactam N-11) in the same way.
Key: 26

Exercise: Consider next the molecule CC(C)C[C@H]1C(=O)N[C@H](C(=O)N2CCCCC2)CC(=O)N(C)CC(=O)N[C@@H]([C@@H](C)O)C(=O)N(C)[C@@H](C)C(=O)N(C)[C@@H](Cc2ccccc2)C(=O)NCC(=O)N(C)[C@@H](Cc2ccccc2)C(=O)N(C)[C@@H](CC(C)C)C(=O)N(C)[C@@H](CC(C)C)C(=O)N1C [DP-175] ([Sar]T[NMeA][NMeF]G[NMeF][NMeL][NMeL][NMeL]D-Piperidide; lactam N-10) in the same way.
Key: 94

Exercise: Consider next the molecule CC[C@H](C)[C@@H]1NC(=O)[C@H](Cc2ccccc2)NC(=O)[C@H](CC(C)C)NC(=O)[C@H](CC(C)C)NC(=O)[C@H](C)NC(=O)C[C@@H](C(=O)N2CCCCC2)NC(=O)[C@H](CC(C)C)N(C)C(=O)[C@H](Cc2ccccc2)NC(=O)[C@H](CC(C)C)NC(=O)CNC(=O)[C@H]([C@@H](C)O)NC1=O [DP-513] (ALLFITGLF[NMeL]D-Piperidide; lactam N-11) in the same way.
Key: 184

Exercise: Consider next the molecule CC[C@H](C)[C@H]1C(=O)N[C@@H](C)CC(=O)N(C)[C@H](C)C(=O)N(C)[C@@H](CC(C)C)C(=O)N[C@@H]([C@@H](C)O)C(=O)N(C)CC(=O)N[C@@H](COC(C)(C)C)C(=O)N(C)[C@@H](CC(C)C)C(=O)N1C [DP-826] (cyclo([NMeI][β3hA][dNMeA][NMeL]T[Sar]S(tBu)[NMeL])) in the same way.
Key: 213
